# measured on: kappa opioid receptor (KOR) (human) (UniProt P41145)
# Sequence (P41145 whole entry): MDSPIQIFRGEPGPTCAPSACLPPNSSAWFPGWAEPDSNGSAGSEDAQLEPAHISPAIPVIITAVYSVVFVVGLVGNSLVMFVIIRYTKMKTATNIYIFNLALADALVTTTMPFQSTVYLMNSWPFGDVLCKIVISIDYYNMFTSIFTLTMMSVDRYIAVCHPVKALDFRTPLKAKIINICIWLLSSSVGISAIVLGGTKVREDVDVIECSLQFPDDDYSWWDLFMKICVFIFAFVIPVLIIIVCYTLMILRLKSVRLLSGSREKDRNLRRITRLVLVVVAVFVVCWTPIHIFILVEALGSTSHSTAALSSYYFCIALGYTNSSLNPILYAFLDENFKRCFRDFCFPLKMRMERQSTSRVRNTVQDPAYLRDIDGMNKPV
No end group written: not given here.
Hi there, I'd appreciate the recorded Supplementary Table 4: EC50 of β-arrestin-1 recruitment to KOR, U87 cells for every entry that follows.
Give a bare numeral; the unit nM is implied.

Given YGGFMRRA-NH2 [adrenorphin-derived peptide YGGFMRRA] , state its recorded Supplementary Table 4: EC50 of β-arrestin-1 recruitment to KOR, U87 cells.
132

Given YGGFARRV-NH2 [adrenorphin-derived peptide YGGFARRV] , state its recorded Supplementary Table 4: EC50 of β-arrestin-1 recruitment to KOR, U87 cells.
656

Given YGGFMRRF-NH2 [adrenorphin-derived peptide YGGFMRRF] , state its recorded Supplementary Table 4: EC50 of β-arrestin-1 recruitment to KOR, U87 cells.
80.9

Given YGGFMRRK-NH2 [adrenorphin-derived peptide YGGFMRRK] , state its recorded Supplementary Table 4: EC50 of β-arrestin-1 recruitment to KOR, U87 cells.
19.2

Given YGGFMRRI-NH2 [adrenorphin-derived peptide YGGFMRRI] , state its recorded Supplementary Table 4: EC50 of β-arrestin-1 recruitment to KOR, U87 cells.
76.9

Given YGGFMRKV-NH2 [adrenorphin-derived peptide YGGFMRKV] , state its recorded Supplementary Table 4: EC50 of β-arrestin-1 recruitment to KOR, U87 cells.
230

Given YGGFMRRL-NH2 [adrenorphin-derived peptide YGGFMRRL] , state its recorded Supplementary Table 4: EC50 of β-arrestin-1 recruitment to KOR, U87 cells.
71.2

Given YGGFLRRV-NH2 [adrenorphin-derived peptide YGGFLRRV] , state its recorded Supplementary Table 4: EC50 of β-arrestin-1 recruitment to KOR, U87 cells.
31.9

Given YGGFMRRVC-NH2 (also: dimer of two chains) [adrenorphin-derived peptide (…)2] , state its recorded Supplementary Table 4: EC50 of β-arrestin-1 recruitment to KOR, U87 cells.
79.4

Given YGGFMKRV-NH2 [adrenorphin-derived peptide YGGFMKRV] , state its recorded Supplementary Table 4: EC50 of β-arrestin-1 recruitment to KOR, U87 cells.
416

Given YGAFMRRV-NH2 [adrenorphin-derived peptide YGAFMRRV] , state its recorded Supplementary Table 4: EC50 of β-arrestin-1 recruitment to KOR, U87 cells.
315

Given YGGFMRRQ-NH2 [adrenorphin-derived peptide YGGFMRRQ] , state its recorded Supplementary Table 4: EC50 of β-arrestin-1 recruitment to KOR, U87 cells.
63.1

Given AYGGFMRRV-NH2 , state its recorded Supplementary Table 4: EC50 of β-arrestin-1 recruitment to KOR, U87 cells.
205

Given YGGFMRRVR-NH2 , state its recorded Supplementary Table 4: EC50 of β-arrestin-1 recruitment to KOR, U87 cells.
21.9

Given YGGFMARV-NH2 [adrenorphin-derived peptide YGGFMARV] , state its recorded Supplementary Table 4: EC50 of β-arrestin-1 recruitment to KOR, U87 cells.
2240

Given YGGFQRRV-NH2 [adrenorphin-derived peptide YGGFQRRV] , state its recorded Supplementary Table 4: EC50 of β-arrestin-1 recruitment to KOR, U87 cells.
283

Given YGGFNRRV-NH2 [adrenorphin-derived peptide YGGFNRRV] , state its recorded Supplementary Table 4: EC50 of β-arrestin-1 recruitment to KOR, U87 cells.
508

Given YGGFMRRVA-NH2 , state its recorded Supplementary Table 4: EC50 of β-arrestin-1 recruitment to KOR, U87 cells.
57.5

Given YGGFMRAV-NH2 [adrenorphin-derived peptide YGGFMRAV] , state its recorded Supplementary Table 4: EC50 of β-arrestin-1 recruitment to KOR, U87 cells.
1250

Given YGGFFRRV-NH2 [adrenorphin-derived peptide YGGFFRRV] , state its recorded Supplementary Table 4: EC50 of β-arrestin-1 recruitment to KOR, U87 cells.
194
